Tested on: C. coli ATCC 33559
Test: Minimum bactericidal concentration (MBC)
Type: cell-based, Campylobacter coli
Conditions: Campylobacter coli, ATCC33559; concentration at which 99.9% of organisms are killed; read-out: C. coli MBC
result-type: MBC (µM)

[[record]]
compound = "COc1ccc(CNCc2ccc(Cl)s2)cc1OCC(O)CN1CCCC1 (stereo not shown)"
unit_of_measure = "µM"
op = "="
data_value = 100

[[record]]
compound = "O=c1c(Cl)c(Cl)cnn1-c1ccccc1Cl"
unit_of_measure = "µM"
op = "="
data_value = 50

[[record]]
compound = "CN(Cc1ccccc1)CC1CCCN(CCc2ccc(F)cc2)C1 (stereo not shown)"
unit_of_measure = "µM"
op = ">"
data_value = 200

[[record]]
compound = "CN(Cc1cccc2cnccc12)CC1CCCN(CCc2ccc(F)cc2)C1 (stereo not shown)"
unit_of_measure = "µM"
op = "="
data_value = 50

[[record]]
compound = "CN(CC(O)COc1ccccc1CNC1(c2ccccc2)CC1)C1CCCCC1 (stereo not shown)"
unit_of_measure = "µM"
op = "="
data_value = 50

[[record]]
compound = "Clc1ccc(N2CCN(Cc3ccsc3)CC2)cc1"
unit_of_measure = "µM"
op = "="
data_value = 100

[[record]]
compound = "O=S(=O)(Nc1cccc(C(F)(F)F)c1)c1ccc(Br)cc1"
unit_of_measure = "µM"
op = "="
data_value = 50

[[record]]
compound = "CC(=O)Nc1ccc(CN(C)CC2CCCN(CCc3cccc(C(F)(F)F)c3)C2)cc1 (stereo not shown)"
unit_of_measure = "µM"
op = "="
data_value = 100

[[record]]
compound = "Cc1ccc(N2CCN(C/C=C/c3ccccc3)CC2)cc1"
unit_of_measure = "µM"
op = "="
data_value = 50

[[record]]
compound = "Cc1c(C(C)NCc2cccc(OC3CCCC3)c2)cnn1-c1ccccc1 (stereo not shown)"
unit_of_measure = "µM"
op = "="
data_value = 100


----------
Assay: Cytotoxicity by LDH release
Type: cell-based, human
Details: human, Caco-2 cells, 24 h, LDH release, no FBS
Measured cytotoxicity at 24 h, 200 µM, listed per entry.
result-type: cytotoxicity at 24 h, 200 µM (%)

[[record]]
molecule = "O=S(=O)(Nc1cccc(C(F)(F)F)c1)c1ccc(Br)cc1"
op = "="
data_value = 30.3

[[record]]
molecule = "Cc1c(C(C)NCc2cccc(OC3CCCC3)c2)cnn1-c1ccccc1 (stereo not drawn)"
op = "="
data_value = 27.8

[[record]]
molecule = "CN(Cc1ccccc1)CC1CCCN(CCc2ccc(F)cc2)C1 (stereo not drawn)"
op = "="
data_value = 8.8

[[record]]
molecule = "Cc1ccc(N2CCN(C/C=C/c3ccccc3)CC2)cc1"
op = "≤"
data_value = 10

[[record]]
molecule = "O=c1c(Cl)c(Cl)cnn1-c1ccccc1Cl"
op = "="
data_value = 28

[[record]]
molecule = "CC(=O)Nc1ccc(CN(C)CC2CCCN(CCc3cccc(C(F)(F)F)c3)C2)cc1 (stereo not drawn)"
op = "="
data_value = 12.1

[[record]]
molecule = "CN(C)c1ccc(CN2CCN(c3ccccc3Cl)CC2)cc1"
op = "="
data_value = 11.3

[[record]]
molecule = "CN(CC(O)COc1ccccc1CNC1(c2ccccc2)CC1)C1CCCCC1 (stereo not drawn)"
op = "="
data_value = 16.6

[[record]]
molecule = "COc1ccc(CN2CCN(c3ccc(F)cc3)CC2)cc1C"
op = "≤"
data_value = 10

